Origin of measurements: paper PMC9352680

Biological target: T1, PUF4 RNA-binding domain (Saccharomyces cerevisiae, UniProt P25339 537-888)
T1 sequence: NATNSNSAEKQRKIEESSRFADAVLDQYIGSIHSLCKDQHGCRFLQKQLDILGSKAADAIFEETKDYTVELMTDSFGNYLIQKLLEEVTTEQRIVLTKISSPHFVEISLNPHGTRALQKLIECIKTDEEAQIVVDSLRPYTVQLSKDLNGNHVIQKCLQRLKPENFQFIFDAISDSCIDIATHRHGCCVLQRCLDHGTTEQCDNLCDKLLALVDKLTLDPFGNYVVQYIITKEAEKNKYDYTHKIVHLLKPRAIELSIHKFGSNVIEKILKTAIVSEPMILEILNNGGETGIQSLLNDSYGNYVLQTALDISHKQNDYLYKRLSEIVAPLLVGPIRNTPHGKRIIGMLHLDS
Experiment: Mg; RNA-MaP; 20 mM Na-HEPES pH 7.4, 30 mM KOAc, 0.75 mM MgCl2, 0.1% Tween-20, 5% glycerol, 0.1 mg/mL BSA, 2 mM DTT; 25 C; 0.0125-409.6 nM protein
Settings: tags: N-His6-TEV cleaved; C-SNAP kept, Cy3B-labelled; label: tethered on chip by stalled RNA polymerase
reported.property: Kd

Example entries and their recorded answers appear below.
UCUCUUAGUAUAUUGUCUCUU (ssRNA) [Ib_S1_P4E.1_K4.1_C4.1_H4.1_[T1A]_A4.1_F4.1_[A9G]_T4.1]	631 nM
Ic_S4_P5E.1_K5.1_C5.1_H5.1_A5.1_[A7T]_F5.1_[T8C]_[T9C]_T5.1 (ssRNA) RNA: UUUGACAACUGAUCGUUCUUUCUUGUAUUUCCAUUCUUUCUCGAUCAGUUGUCUUU	120 nM
UCUCUUUGUAUAUUUAUCUCUU (ssRNA) [Ie_S1_P4E.1_K4.1_C4.1_H4.1_A4.1_F4.1_[+8T]_T4.1]	2.39 nM

INPUT: Determine its reported Kd: Id_ii_S4_P4E.2_K4.1_C4.2_[T-1G]_H4.1_A4.1_F4.1_T4.2_[G10T] (ssRNA) RNA: UUUGACAACUGAUCGUUCUUUCUCGUGUAUAUUAUUUUCUUUCUCGAUCAGUUGUCUUU
OUTPUT: 0.196 nM

INPUT: Find the measured Kd of Ic_S2_P4E.1_K4.1_C4.1_H4.1_A4.1_[T5A]_[A6T]_[T7C]_F4.1_[T8C]_[A9T]_T4.1 (ssRNA) RNA: UUUGAUUAAUAUGAUAUCGUUCUUUCUUGUAAUCCUUUCUUUCUCGAUAUCAUAUUAAUCUUU and report it.
OUTPUT: 283 nM

INPUT: Name the recorded Kd of the item Ic_S4_P4E.1_K4.1_C4.1_H4.1_A4.1_[T5A]_[A6C]_F4.1_[T8A]_[A9G]_T4.1 (ssRNA) RNA: UUUGACAACUGAUCGUUCUUUCUUGUAACUAGUUCUUUCUCGAUCAGUUGUCUUU in your answer.
OUTPUT: 653 nM

INPUT: Input UCUCUUAUUAUAUAUAAUUCUCUU (ssRNA) [Id_ii_S1_P3E.3_K3.2_C3.2_[C-2A]_H3.2_A3.1_F3.1_T3.2_[T9A]_[A10T]] , output reported Kd.
OUTPUT: 814 nM

INPUT: Consider the binder UCUCUUUGUACAUAAUCUCUU (ssRNA) [Ic_S1_P4E.1_K4.1_C4.1_H4.1_A4.1_[T5C]_F4.1_[T8A]_T4.1] . State its measured Kd.
OUTPUT: 6.09 nM
